- run.description: basal 3T3-L1 adipocyte mitochondrial potential changes, profiling panel, cell-based, JC-1 fluorescence, 3T3-L1 adipocytes, 24 h, 100 nL compound (AID 1168); also: test concentration not given here
- test.conditions: JC-1 mitochondrial fluorescence, higher = more signal, called active from +8 up or from −8 down
assay.readout: z-score
Give bare numbers.

// known answers, use as guide
compound: O=C(N1CCCCC1)[C@]1(Cc2ccccc2)N=C(c2ccc(OCCCO)cc2)O[C@@H]1c1ccccc1
test.result: -0.515
//
compound: C=CCC(OC(C)=O)[C@@H]1[C@@H](N(Cc2ccc(-c3ccccc3)cc2)C(=O)Cc2ccc(OC)cc2)c2cc(OCCCO)ccc2N1C(=O)Cc1ccc2ccccc2c1 (some centres undefined)
test.result: -1.73
//
compound: O=C1OCCC/C=C\[C@H]2OC34C=CCN(Cc5ccccc5)C(=O)[C@H]3N(CCCO)C(=O)[C@@H]4C12 (some centres undefined)
test.result: 0.478
//
compound: COC(=O)[C@H](Cc1ccccc1)N[C@@H](/C=C/C1CC1)[C@H](O)Cc1ccccc1
test.result: -0.124
//
compound: CC(C)c1ccc(NN2C(C(O)c3ccc(B(O)O)cc3)C=CC3C(=O)N(c4ccccc4)C(=O)C32)cc1 (centres undefined)
test.result: -1.56

Please go through the list and note z-score for each compound.
1. O=C(c1ccccc1)N1Cc2ccccc2C[C@@]2(COC(c3ccc(OCCCO)cc3)=N2)C1=O
2. COCCOC(=O)N1C(=O)[C@@]2(c3cc(C#CCCO)ccc31)[C@H](C(=O)N1CCCCCCC1)[C@H]1C(=O)O[C@H](c3ccccc3)[C@H](c3ccccc3)N1[C@@H]2c1ccc(OCCO)cc1
3. COc1ccc([Si](C)(C)[C@H]2[C@H](CCO)O[C@@]3(C(=O)N(Cc4ccc(N(C=O)c5ccccc5)cc4)c4ccccc43)[C@@H]2C)cc1

Response given:
[-0.768, -1.47, -0.393]

Please go through the list and note z-score for each compound.
1. O=C1NC(=O)C2C1C=CC(C(O)c1cccs1)N2Nc1ccc(Cl)cc1Cl (centres undefined)
2. CN(C)C(=O)[C@]1(Cc2ccccc2N=[N+]=[N-])N=C(c2ccc(OCCCO)cc2)O[C@@H]1c1ccccc1N=[N+]=[N-]
3. C[N+](C)(C)CCCCNC(=O)[C@H]1C[C@H]2C(=O)N3CCC[C@H]3C(=O)N2[C@H]1c1cccc(OCCO)c1
4. C=CCNC(=O)[C@H]1[C@@H]2C(=O)O[C@@H](c3ccccc3)[C@@H](c3ccccc3)N2[C@@H](c2ccccc2OCCO)[C@]12C(=O)Nc1ccc(C#CCC(C(=O)OC)C(=O)OC)cc12
5. COCCOC(=O)N1C(=O)[C@@]2(c3ccccc31)[C@H](c1ccccc1OCCO)N1[C@H](c3ccccc3)[C@H](c3ccccc3)OC(=O)[C@H]1[C@@H]2C(=O)N1CCN(c2ncccn2)CC1

Response given:
0.0583
1.41
-0.186
2.62
0.665

Challenge: Fill in z-score for record O=C(CS)NCCCCCCNC(=O)[C@@H]1C[C@@H]2C(=O)N[C@@H](Cc3ccccc3)C(=O)N2[C@@H]1c1cccc(OCCO)c1
Response given: 0.476

###

- run.description: small-molecule binders of probe aInhba, primary screen, biochemical, small-molecule microarray, 635/667 nm fluorescence (AID 1148);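 also: score merges 667nm spot fluorescence with signal-to-noise for antibody binding to printed compounds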
- test.conditions: higher = more signal
Rule: 1 for composite z-score not less than -0.04, 0 for anything less.

Examples from the recorded data:
molecule: COc1cc2c(cc1OC)CN(C(=O)[C@@H]1[C@H]3C(=O)O[C@H](c4ccccc4)[C@H](c4ccccc4)N3[C@H](c3ccc(O)cc3)[C@@]13C(=O)Nc1ccccc13)CC2
label.value: 1
//
molecule: COCCCNC(=O)[C@]1(CCC(=O)OC(C)(C)C)N=C(c2ccc(OCCCO)cc2)O[C@@H]1c1ccccc1CN=[N+]=[N-]
label.value: 1
//
molecule: [N-]=[N+]=NCc1ccccc1[C@@H]1OC(c2ccc(OCCCO)cc2)=N[C@]1(Cc1ccccc1)C(N)=O
label.value: 1

Challenge: Check if composite z-score >= -0.04 (inclusive). Item: CC(C)C(O)C1C=CC2C(=O)NC(=O)C2N1Nc1ccc(Cl)cc1Cl (stereo unspecified)
Response given: 0

Challenge: Check if composite z-score >= -0.04 (inclusive). Item: C=C[C@H](OC)[C@@H](OC(=O)Nc1ccc(OC)cc1)c1ccc(O)c(F)c1
Response given: 0
